Attribution: patent US20230339977A1

Experiment: Pharmacokinetic evaluation in rats after intravenous injection and oral administration
Type: in vivo
Settings: rat, plasma, IV 1 mg/kg, read-out: PK T½ (converted)
RECORDED_ENDPOINT: half-life (h)

* COc1cc(-c2cn(C)c3cnc(NC(C)=O)cc23)nc2c1COC21CCOC1 (centres unmarked) [Example 1] | 1.24
* CC(=O)Nc1cc2c(-c3ccc4c(n3)C3(CCOC3)OC4)cn(C)c2cn1 (centres unmarked) [Example 2] | 0.971

###

Experiment: Pharmacokinetic evaluation in rats after intravenous injection and oral administration
Type: in vivo
Conditions: rat, plasma, PO 5 mg/kg, read-out: PK AUClast
RECORDED_ENDPOINT: AUC(0-t) (ng·h/mL)

[A] CC(=O)Nc1cc2c(-c3ccc4c(n3)C3(CCOC3)OC4)cn(C)c2cn1 (stereo not drawn) [Example 2]
[B] CC(=O)Nc1cc2c(-c3cc(OCCC(C)(C)O)c4c(n3)C3(CCOC3)OCC4)cn(C)c2cn1 (stereo not drawn) [Example 26]
Enquiry: Name the one with the greater AUC(0-t) value, either A or B as given. # reply format: chosen label
Return: A
